- Test system: CCRIS mutagenicity, Ames/micronucleus/aberration tests
- Protocol summary: CCRIS mutagenicity studies
- Test context: Test System: AMES SALMONELLA TYPHIMURIUM; Strain/Indicator: TA98(1,8-DNP6); Metabolic Activation: NONE
Calls of active or inactive are those of the source. The rule behind the calls is not given here.
// classify into 1.0 (active), 0.0 (inactive)

Req: I would be grateful if you could indicate the recorded call for O=[N+]([O-])c1ccc(-c2ccccc2)cc1 .
Resp: 0.0

Req: I would be grateful if you could indicate the recorded call for O=[N+]([O-])c1cc2ccc3cccc4ccc(c1)c2c34 .
Resp: 1.0

Req: I would be grateful if you could indicate the recorded call for O=[N+]([O-])c1ccc2c3c(ccc([N+](=O)[O-])c13)-c1ccccc1-2 .
Resp: 1.0

Req: I would be grateful if you could indicate the recorded call for O=[N+]([O-])c1ccc2ccc3c4ccccc4c([N+](=O)[O-])c4ccc1c2c43 .
Resp: 1.0

---

- Test system: CCRIS mutagenicity, Ames/micronucleus/aberration tests
- Protocol summary: CCRIS mutagenicity studies
- Test context: Test System: AMES SALMONELLA TYPHIMURIUM; Strain/Indicator: TA1537; Metabolic Activation: NONE; Method: STANDARD PLATE
- From the text: The CCRIS database contains chemical records with carcinogenicity, mutagenicity, tumor promotion, and tumor inhibition test results. It was developed by the National Cancer Institute (NCI). Data are derived from studies cited in primary journals, current awareness tools, NCI reports, and other sources. Test results have been reviewed by experts in carcinogenesis and mutagenesis. CCRIS provides historical information from the years 1985 - 2011. It is no longer updated. […]
Active and inactive are the calls of the source. How the calls were made is not given here.
// classify into active, inactive

Req: I would be grateful if you could indicate the recorded call for ClCc1c2ccccc2c(CCl)c2ccccc12 .
Resp: active

Req: I would be grateful if you could indicate the recorded call for ClC(Cl)Br .
Resp: active

Req: I would be grateful if you could indicate the recorded call for OC[C@H]1O[C@@H](n2cnc3c(=S)nc[nH]c32)[C@H](O)[C@@H]1O .
Resp: inactive

Req: I would be grateful if you could indicate the recorded call for CC(C)c1cc(N)c([N+](=O)[O-])cc1N .
Resp: inactive

Req: I would be grateful if you could indicate the recorded call for NCCNCCNCCN .
Resp: active

Req: I would be grateful if you could indicate the recorded call for C/C=C/C=C/C=O .
Resp: inactive

Req: I would be grateful if you could indicate the recorded call for CS(=O)CCC(=O)N1[C@@H](c2ccccc2O)SC[C@H]1C(=O)O (stereo partly drawn) .
Resp: inactive

Req: I would be grateful if you could indicate the recorded call for CCOC(=O)CBr .
Resp: inactive

Req: I would be grateful if you could indicate the recorded call for O=C(n1ccnc1)n1ccnc1 .
Resp: inactive

Req: I would be grateful if you could indicate the recorded call for Cc1ncc2c(n1)CCC2 .
Resp: inactive

Req: I would be grateful if you could indicate the recorded call for CNC(=O)c1cccc2c(Nc3ccc(NS(C)(=O)=O)cc3OC)c3cccc(C)c3nc12 .
Resp: active

Req: I would be grateful if you could indicate the recorded call for O=C([O-])c1cc(N=Nc2ccc(-c3ccc(N/N=c4/c(=O)cc/c(=N\Nc5cc(S(=O)(=O)[O-])ccc5[O-])c4=O)cc3)cc2)ccc1[O-].[Cu+2].[Na+].[Na+] .
Resp: inactive

Req: I would be grateful if you could indicate the recorded call for O=NN(CC(=O)O)CC1(O)OCC(O)C(O)C1O (stereo not drawn) .
Resp: inactive

Origin of measurements: PubChem BioAssay AID1259407
